target: hGLP-1R (Homo sapiens, UniProt P43220); test: cell-based or functional assay
Sequence (P43220 24-463): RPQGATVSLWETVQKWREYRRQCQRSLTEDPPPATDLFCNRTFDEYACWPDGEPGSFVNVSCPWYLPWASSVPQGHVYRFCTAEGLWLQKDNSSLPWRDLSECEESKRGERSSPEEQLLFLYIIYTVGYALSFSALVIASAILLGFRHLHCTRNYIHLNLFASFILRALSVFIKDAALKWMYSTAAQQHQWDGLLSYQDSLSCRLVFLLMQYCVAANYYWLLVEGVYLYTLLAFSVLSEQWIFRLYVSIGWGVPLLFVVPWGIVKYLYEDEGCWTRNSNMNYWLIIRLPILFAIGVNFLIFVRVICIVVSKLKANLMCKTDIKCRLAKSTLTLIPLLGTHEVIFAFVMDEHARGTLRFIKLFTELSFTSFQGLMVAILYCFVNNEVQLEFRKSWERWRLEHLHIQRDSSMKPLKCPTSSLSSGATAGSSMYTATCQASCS
TEST READOUT: log10 of cAMP Rel EC50, nM (1% HSA) (log10 of the value in nM)
Values are log10 of cAMP Rel EC50, nM (1% HSA) in nM.

Some binders with known log10 of cAMP Rel EC50, nM (1% HSA) results, for comparison:
{"BINDER": "YXQGTFTSDFSQXLDKKAQXAFIEYLLAGGPSSGEPPPSGS (synthetic construct; SITE 2: note = 2-Aminoisobutyric Acid; SITE 13: note = alpha-methyl-leucine; SITE 17: note = Lysine is chemically modified through conjugation of the epsilon-amino group of the Lysine side chain with (2-[2-(2-Amino-ethoxy)-ethoxy]-acetyl)-(gamma-Glu)-CO-(CH2) 16-CO2H; SITE 20: n) [Example 773]", "TEST READOUT": "log10 of cAMP Rel EC50, nM (1% HSA)", "EXPERIMENTAL VALUE": 2.38}
{"BINDER": "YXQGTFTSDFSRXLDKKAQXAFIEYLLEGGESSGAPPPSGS (synthetic construct; SITE 2: note = 2-Aminoisobutyric Acid; SITE 13: note = alpha-methyl-leucine; SITE 17: note = Lysine is chemically modified through conjugation of the epsilon-amino group of the Lysine side chain with (2-[2-(2-Amino-ethoxy)-ethoxy]-acetyl)2-(gamma-Glu)-CO-(CH2 )16-CO2H; SITE 20:) [Example 149]", "TEST READOUT": "log10 of cAMP Rel EC50, nM (1% HSA)", "EXPERIMENTAL VALUE": 2.90}
{"BINDER": "YXQGTFTSDXSQXLDXKAQXAFIEYLIAGGPSSGEPPPSGTEEE (non-natural residues; acylated Lys; C-terminal amide; synthetic construct; SITE 2: note = 2-Aminoisobutyric Acid; SITE 10: note = 3-(4-Pyridyl)-L-alanine; SITE 13: note = alpha-methyl-leucine; SITE 16: note = L-ornithine; SITE 17: note = Lysine is chemically modified through conjugation of the epsilon-amino group of the Lysine side chain with (gamma-Gl)) [Example 986]", "TEST READOUT": "log10 of cAMP Rel EC50, nM (1% HSA)", "EXPERIMENTAL VALUE": 2.58}

Form field: reported log10 of cAMP Rel EC50, nM (1% HSA) of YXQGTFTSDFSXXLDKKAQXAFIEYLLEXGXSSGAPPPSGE (synthetic construct; SITE 2: note = 2-Aminoisobutyric Acid; SITE 12: note = L-ornithine; SITE 13: note = alpha-methyl-leucine; SITE 17: note = Lysine is chemically modified through conjugation of the epsilon-amino group of the Lysine side chain with (2-[2-(2-Amino-ethoxy)-ethoxy]-acetyl)2-(gamma-Glu)) [Example 189]
2.63

Consider the binder YXQGTXTSDXSILLDKKAQXAFIEYLLEGGPSSGAPPPS (synthetic construct; SITE 2: note = 2-Aminoisobutyric Acid; SITE 6: note = alpha-methyl-L-phenylalanine; SITE 10: note = 3-(4-Pyridyl)-L-alanine; SITE 17: note = Lysine is chemically modified through conjugation of the epsilon-amino group of the Lysine side chain with (2-[2-(2-Amino-ethoxy)-ethoxy]-) [Example 418] and give its measured log10 of cAMP Rel EC50, nM (1% HSA).
1.56

Could you share which log10 of cAMP Rel EC50, nM (1% HSA) value was measured for YXQGTFTSDXSXXLDKKAQXAFIEYLIEXGESSGAPPPSGE (acylated peptide; synthetic construct; SITE 2: note = 2-Aminoisobutyric Acid; SITE 10: note = 3-(4-Pyridyl)-L-alanine; SITE 12: note = L-ornithine; SITE 13: note = alpha-methyl-leucine; SITE 17: note = Lysine is chemically modified through conjugation of the epsilon-amino group of the Lysine side chain with (2-[2-(2-) [Example 222] ?
2.88

Could you share which log10 of cAMP Rel EC50, nM (1% HSA) value was measured for YXQGTXTSDXXIXLDXKAQXEFIEXLVEGGPSSGAPPPSGE (synthetic construct; SITE 2: note = 2-Aminoisobutyric Acid; SITE 6: note = alpha-methyl-2-fluoro-L-phenylalanine; SITE 10: note = 3-(4-Pyridyl)-L-alanine; SITE 11: note = alpha-methyl-L-serine; SITE 13: note = alpha-methyl-leucine; SITE 16: note = L-ornithine; SITE 17: note = Lysine is chemically mo) [Example 749] ?
1.53

Entry under review: YXQGTFTSDXSQXLDXKAQXQFIEXLIEGGPSSGEPPPSGSEE (non-natural residues, lipidated Lys, C-terminal amide; synthetic construct; SITE 2: note = 2-Aminoisobutyric Acid; SITE 10: note = 3-(4-Pyridyl)-L-alanine; SITE 13: note = alpha-methyl-leucine; SITE 16: note = L-ornithine; SITE 17: note = Lysine is chemically modified through conjugation of the epsilon-amino group of the Lysine side chain with (gamma-Gl)) [Example 1026] . Reported log10 of cAMP Rel EC50, nM (1% HSA)?
2.48
